Measured IC50 of individual entries
target: HLA-DRB1*01:01 (Homo sapiens, UniProt P01903+P01911, A100R/D57E/F55L/F60I/F76Y/I96L/L162R/M171V/P40L/Q125E/R42F/V115G/Y59C); construct: EBV transformed homozygous cell lines were used as sources of MHC molecules; endogenous in cells; host or cells: EBV transformed homozygous cell lines; experiment: HLA class II peptide binding, inhibition of radiolabeled peptide binding to purified MHC; settings: citrullinated 15-mer (X); purified MHC, inhibition of radiolabeled peptide binding; dash = IC50 >40,000 nM; read-out: DRB1*01:01 binding capacity, Cit peptide (IC50 nM)
Square brackets hold non-standard residues; d marks the D form. Peptide text beside a SMILES is read from it. Cit = NC(=O)NCCC[C@H](N)C(=O)O
Write the number in nM without appending the unit.

- compound: "CC(C)C[C@H](NC(=O)[C@H](CCC(N)=O)NC(=O)[C@H](CC(=O)O)NC(=O)[C@@H](NC(=O)[C@H](CCC(N)=O)NC(=O)[C@H](CCCNC(=N)N)NC(=O)[C@H](CCCNC(N)=O)NC(=O)[C@H](CC(C)C)NC(=O)[C@@H](N)CCC(=O)O)C(C)C)C(=O)N[C@H](C(=O)N[C@@H](CC(N)=O)C(=O)N[C@@H](CC(=O)O)C(=O)N[C@@H](CCCCN)C(=O)N[C@@H](C)C(=O)N[C@@H](CCCNC(=N)N)C(=O)O)[C@@H](C)O [ELXRQVDQLTNDKAR] (H-EL[Cit]RQVDQLTNDKAR-OH)"
  IC50 (nM): 614

Task: Which IC50 value is on record for CC(C)C[C@H](NC(=O)[C@H](CCCNC(=N)N)NC(=O)[C@H](C)N)C(=O)N[C@@H](CC(=O)O)C(=O)N[C@@H](CC(C)C)C(=O)N[C@@H](CCC(=O)O)C(=O)N[C@@H](CCCNC(N)=O)C(=O)N[C@@H](CCCCN)C(=O)N[C@H](C(=O)N[C@@H](CCC(=O)O)C(=O)N[C@@H](CO)C(=O)N[C@@H](CC(C)C)C(=O)N[C@@H](CCC(N)=O)C(=O)N[C@@H](CCC(=O)O)C(=O)N[C@@H](CCC(=O)O)C(=O)O)C(C)C [ARLDLEXKVESLQEE] (H-ARLDLE[Cit]KVESLQEE-OH) ?
Output: 1340

Task: Which IC50 value is on record for CC(C)C[C@H](NC(=O)[C@H](CC(N)=O)NC(=O)[C@H](CCCCN)NC(=O)[C@H](C)NC(=O)[C@H](C)NC(=O)[C@@H](NC(=O)[C@H](CO)NC(=O)[C@H](CCC(=O)O)NC(=O)[C@H](Cc1ccc(O)cc1)NC(=O)[C@H](CCC(N)=O)NC(=O)[C@H](CCC(N)=O)NC(=O)[C@H](CCCNC(N)=O)NC(=O)[C@@H](NC(=O)[C@@H](N)CC(=O)O)C(C)C)C(C)C)C(=O)N[C@@H](CCC(N)=O)C(=O)O [DVXQQYESVAAKNLQ] (H-DV[Cit]QQYESVAAKNLQ-OH) ?
Output: 19

----------
biological target: DRB3*02:02 (Homo sapiens, UniProt P01903+P79483, A212P/D57E/F66Y/L67A/R103Q/R218S/R40L/S89Y/T80R/V86D/Y55F/Y59H); assay: HLA class II peptide binding, inhibition of radiolabeled peptide binding to purified MHC; details: Other DR, competition with radiolabeled peptide, two-day incubation, three or more independent experiments
Ends that are not written are not given here.
reported.endpoint: IC50 (nM)
Write the number in nM without appending the unit.

In the examples that follow, each entry is paired with its recorded IC50.
- primary.sequence: "LQYMRADQAAGGLR [Collagen II 1236–1249 WT]"
  reported.endpoint: "IC50"
  test.result: 262
- primary.sequence: "SAVRLRSSVPGVR [Vimentin 66–78 WT]"
  reported.endpoint: "IC50"
  test.result: 9090

--- query ---
Task: Which IC50 value is on record for VVLLVATEGRVRVNSAYQDK [Aggrecan 84–103 WT] ?
Output: 245

----------
target: HLA-DRB1*04:01 (Homo sapiens, UniProt P01903+P01911, A100K/A169T/F76Y/I96L/K127E/L162R/M171V/N62H/P40V/Q125Y/R42H/S133A/S149N/S66Y/V115G/V209L/W38E); construct: EBV transformed homozygous cell lines were used as sources of MHC molecules; endogenous in cells; host or cells: EBV transformed homozygous cell lines; assay: HLA class II peptide binding, inhibition of radiolabeled peptide binding to purified MHC; settings: citrullinated 15-mer peptide (X = citrulline); purified HLA-DRB1*04:01; read-out: DRB1*04:01 binding capacity, Cit peptide (IC50 nM)
Square brackets hold non-standard residues; d marks the D form. Peptide text beside a SMILES is read from it. Cit = NC(=O)NCCC[C@H](N)C(=O)O
Measured IC50 of individual entries

- molecule: "CC(C)C[C@H](NC(=O)CNC(=O)[C@H](CCCNC(N)=O)NC(=O)[C@@H](N)CCC(=O)O)C(=O)N[C@@H](CCCCN)C(=O)NCC(=O)N[C@@H](Cc1c[nH]cn1)C(=O)N[C@@H](CCCNC(=N)N)C(=O)NCC(=O)N[C@@H](Cc1ccccc1)C(=O)N[C@H](C(=O)NCC(=O)N[C@@H](CC(C)C)C(=O)N[C@@H](CCC(N)=O)C(=O)NCC(=O)O)[C@@H](C)O [EXGLKGHRGFTGLQG] (H-E[Cit]GLKGHRGFTGLQG-OH)"
  IC50: "> 40000 nM"

--- query ---
Task: Which IC50 value is on record for CC(C)C[C@H](NC(=O)[C@H](C)NC(=O)[C@H](CC(=O)O)NC(=O)[C@@H](N)CC(N)=O)C(=O)N[C@@H](CCCNC(=N)N)C(=O)N[C@@H](CCC(N)=O)C(=O)N[C@@H](C)C(=O)N[C@@H](CCCCN)C(=O)N[C@@H](CCC(N)=O)C(=O)N[C@@H](CCC(=O)O)C(=O)N[C@@H](CO)C(=O)N[C@H](C(=O)N[C@@H](CCC(=O)O)C(=O)N[C@@H](Cc1ccc(O)cc1)C(=O)N[C@@H](CCCNC(N)=O)C(=O)O)[C@@H](C)O [NDALRQAKQESTEYX] (H-NDALRQAKQESTEY[Cit]-OH) ?
Output: 39500 nM

----------
target: HLA-DRB1*01:01 (Homo sapiens, UniProt P01903+P01911, A100R/D57E/F55L/F60I/F76Y/I96L/L162R/M171V/P40L/Q125E/R42F/V115G/Y59C); construct: EBV transformed homozygous cell lines were used as sources of MHC molecules; endogenous in cells; host or cells: EBV transformed homozygous cell lines; test: HLA class II peptide binding, inhibition of radiolabeled peptide binding to purified MHC; conditions: citrullinated 15-mer peptide (X = citrulline); purified HLA-DRB1*01:01; read-out: DRB1*01:01 binding capacity, Cit peptide (IC50 nM)
Square brackets hold non-standard residues; d marks the D form. Peptide text beside a SMILES is read from it. Cit = NC(=O)NCCC[C@H](N)C(=O)O
reported.endpoint: IC50 (nM)
Write the number in nM without appending the unit.

- compound: "CC[C@H](C)[C@H](NC(=O)[C@@H](N)CCC(=O)O)C(=O)N[C@@H](C)C(=O)N[C@H](C(=O)N[C@@H](Cc1ccc(O)cc1)C(=O)N[C@@H](CCCNC(N)=O)C(=O)N[C@@H](CCCCN)C(=O)N[C@@H](CC(C)C)C(=O)N[C@@H](CC(C)C)C(=O)N[C@@H](CCC(=O)O)C(=O)NCC(=O)N[C@@H](CCC(=O)O)C(=O)N[C@@H](CCC(=O)O)C(=O)N[C@@H](CO)C(=O)N[C@@H](CCCNC(=N)N)C(=O)O)[C@@H](C)O [EIATYXKLLEGEESR] (H-EIATY[Cit]KLLEGEESR-OH)"
  endpoint.unit: "nM"
  IC50: 360

--- query ---
Task: Which IC50 value is on record for CC(C)C[C@H](NC(=O)CNC(=O)[C@H](CCCNC(N)=O)NC(=O)[C@@H](N)CCC(=O)O)C(=O)N[C@@H](CCCCN)C(=O)NCC(=O)N[C@@H](Cc1c[nH]cn1)C(=O)N[C@@H](CCCNC(=N)N)C(=O)NCC(=O)N[C@@H](Cc1ccccc1)C(=O)N[C@H](C(=O)NCC(=O)N[C@@H](CC(C)C)C(=O)N[C@@H](CCC(N)=O)C(=O)NCC(=O)O)[C@@H](C)O [EXGLKGHRGFTGLQG] (H-E[Cit]GLKGHRGFTGLQG-OH) ?
Output: 96

----------
target: HLA-DRB1*01:01 (Homo sapiens, UniProt P01903+P01911, A100R/D57E/F55L/F60I/F76Y/I96L/L162R/M171V/P40L/Q125E/R42F/V115G/Y59C); construct: EBV transformed homozygous cell lines were used as sources of MHC molecules; endogenous in cells; host or cells: EBV transformed homozygous cell lines; test: HLA class II peptide binding, inhibition of radiolabeled peptide binding to purified MHC; settings: ratio of WT IC50 to Cit IC50
Square brackets hold non-standard residues; d marks the D form. Peptide text beside a SMILES is read from it. Cit = NC(=O)NCCC[C@H](N)C(=O)O
reported.endpoint: DRB1*01:01 binding capacity, WT/cit ratio
Format: numeric value only, no unit, no commentary.

Task: Which DRB1*01:01 binding capacity, WT/cit ratio value is on record for CC(C)C[C@H](NC(=O)[C@H](C)NC(=O)[C@H](CC(=O)O)NC(=O)[C@H](CC(N)=O)NC(=O)[C@H](CC(N)=O)NC(=O)[C@H](CCCNC(=N)N)NC(=O)[C@H](CC(N)=O)NC(=O)[C@H](C)NC(=O)[C@H](C)N)C(=O)N[C@@H](CCCNC(N)=O)C(=O)N[C@@H](CCC(N)=O)C(=O)N[C@@H](C)C(=O)N[C@@H](CCCCN)C(=O)N[C@@H](CCC(N)=O)C(=O)N[C@@H](CCC(=O)O)C(=O)O [AANRNNDALXQAKQE] (H-AANRNNDAL[Cit]QAKQE-OH; N-terminus and C-terminus assumed) ?
Output: 1.0
